testedSystem: human M4 muscarinic acetylcholine receptor (Homo sapiens, UniProt P08173)
Sequence (P08173 1-479): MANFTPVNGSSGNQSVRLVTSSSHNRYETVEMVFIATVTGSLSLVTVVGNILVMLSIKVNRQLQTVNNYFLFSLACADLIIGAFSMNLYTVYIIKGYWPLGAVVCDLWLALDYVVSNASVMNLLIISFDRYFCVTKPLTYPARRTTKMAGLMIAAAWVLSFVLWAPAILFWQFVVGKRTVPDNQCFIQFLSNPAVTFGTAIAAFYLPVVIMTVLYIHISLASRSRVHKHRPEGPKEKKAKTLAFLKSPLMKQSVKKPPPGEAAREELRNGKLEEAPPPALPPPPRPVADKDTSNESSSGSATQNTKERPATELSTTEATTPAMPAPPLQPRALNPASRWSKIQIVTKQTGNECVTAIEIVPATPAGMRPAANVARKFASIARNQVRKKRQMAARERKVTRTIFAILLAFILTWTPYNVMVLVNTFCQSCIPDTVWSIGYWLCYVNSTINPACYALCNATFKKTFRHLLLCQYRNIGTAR
measurementDescription: human FLIPR-based M4 PAM assay, CHO-K1 cells stably transfected with human M4 receptor and chimeric G-protein Gαqi5
particulars: inflection point (IP) of dose response curve; acetylcholine added at 20% of maximum response; CHO-K1 human M4/Gαqi5, FLIPR Tetra
measuredAttribute: EC50 (nM)
Numbers only here, please. The scale is nM.

Data request: Specify EC50 for Cc1c(Cl)nc(CO)nc1N1CCC(Oc2cccc(C#N)c2)C(F)(F)C1 (centres unmarked) and stop.
Data returned: 75

Data request: State, in one line, measured EC50 of CONC(=O)c1cc(C)c(N2CCC(Oc3cccc(C#N)c3)CC2)nn1
Data returned: 139

Data request: Give me measured EC50, please, for this compound: COc1ccc(OC2CCN(c3nnc(C(=O)NCc4cc(C)n(C)n4)cc3C)CC2)cn1
Data returned: 265

Data request: Entry COc1ccc(OC2CCN(c3nnc(C(=O)NCc4c(C)nc5ccccn45)cc3C)CC2)cn1 needs its EC50 filled in; supply it.
Data returned: 228

Data request: Answer with reported EC50 of Cc1c(Cl)ncnc1N1CCC(Oc2cccnc2)CC1
Data returned: 609

====

testedSystem: human M4 muscarinic acetylcholine receptor (Homo sapiens, UniProt P08173)
measurementDescription: human FLIPR-based M4 PAM assay, CHO-K1 cells stably transfected with human M4 receptor and chimeric G-protein Gαqi5
particulars: inflection point (IP) of dose response curve; acetylcholine added at 20% of maximum response; CHO-K1 human M4/Gαqi5, FLIPR Tetra
measuredAttribute: EC50 (nM)
# number only, unit nM dropped from output

Data request: Give a short answer stating reported EC50 for COc1ccc(OC2CCN(c3nnc(C(=O)NCc4cc(F)c(OC)c(F)c4)cc3C)CC2)cn1 .
Data returned: 871

Data request: Answer with the recorded EC50 of Cc1ncc(C)c(N2CC[C@@H](Oc3cccc(C#N)c3)[C@@H](F)C2)n1 only.
Data returned: 156

Data request: Dear colleague, please send me the reported EC50 for COc1ncc(OC2CCN(c3nc(C)ncc3C)CC2)cc1F when you can.
Data returned: 155

Data request: Consider the compound COc1ccc(OC2CCN(c3nnc(C(=O)NCc4ccncc4)cc3C(F)F)CC2)cn1 and give its recorded EC50.
Data returned: 585

Data request: Given the compound COc1ccc(OC2CCN(c3nnc(C(=O)NC4CCCC4)cc3C)CC2)cn1 , write its reported EC50.
Data returned: 459

Data request: Report EC50 for COc1ccc(OC2CCN(c3nc(C)nc(Cl)c3C)CC2)cn1
Data returned: 191

Data request: Consider the compound Cc1c(Cl)ncnc1N1CCC(Oc2cccc(C#N)c2)CC1 and give its recorded EC50.
Data returned: 49

Data request: For the compound Cc1cc(C(=O)NCc2cnsc2)nnc1N1CCC(Oc2cccc(C#N)c2)CC1 , give its reported EC50.
Data returned: 22

Data request: Provide EC50 value for the following compound: COc1ccc(OC2CCN(c3nnc(C(=O)Nc4ccncc4)cc3C)CC2)cn1
Data returned: 96
